Would you kindly list CC50 for each of these compounds?
# Tested on: COLO 205
# assay protocol: Antiproliferative activity against human COLO205 cells after 48 hrs
# Format: functional
# experimental conditions: COLO 205, 48 h, read-out: Log LC50 (the source's name) (converted)
Use µM as the unit, but write only the number.

CC50 reported for this compound `CCCCCCCCCCCCCCN[C@H](C)[C@@H](O)c1ccccc1.Cl` : 6.17

CC50 reported for this compound `C[C@H](NC(=O)CCCCCCCCCCCCCCC[n+]1ccccc1)[C@H](O)c1ccccc1.[Br-]` : 31.6

CC50 reported for this compound `CCCCCCCCCCCCCCN[C@H](CO)[C@H](O)c1ccccc1` : 6.17

CC50 reported for this compound `CCCCCCCCCCCCCCN[C@@H](CO)Cc1ccccc1` : 6.03

CC50 reported for this compound `CCCCCCCCCCCCCCN[C@@H](C)[C@H](O)c1ccccc1` : 6.17

###

# Test system: DU-145
# assay protocol: Antiproliferative activity against human DU145 cells after 48 hrs
# Type: functional
# experimental conditions: DU-145, 48 h, read-out: Log TGI (converted)
Response field label: string, one of class 1 (TGI strictly below 3 µM) or class 0.

Would you kindly verify if TGI of `CCCCCCCCCCCCCCN[C@H](CO)[C@H](O)c1ccccc1` is strictly less than 3 µM?
class 0

Would you kindly verify if TGI of `C[C@@H](NC(=O)CCCCCCCCCCCCCCC[n+]1ccccc1)[C@@H](O)c1ccccc1.[Br-]` is strictly less than 3 µM?
class 0

Would you kindly verify if TGI of `CCCCCCCCCCCCCCN[C@H](C)[C@@H](O)c1ccccc1.Cl` is strictly less than 3 µM?
class 1

Would you kindly verify if TGI of `CCCCCCCCCCCCCCN[C@H](CO)[C@H](O)c1ccc([N+](=O)[O-])cc1.Cl` is strictly less than 3 µM?
class 1

Would you kindly verify if TGI of `CCCCCCCCCCCCCCN[C@@H](C)[C@H](O)c1ccccc1` is strictly less than 3 µM?
class 0

Would you kindly verify if TGI of `C[C@H](NC(=O)CCCCCCCCCCCCCCC[n+]1ccccc1)[C@H](O)c1ccccc1.[Br-]` is strictly less than 3 µM?
class 0

###

Would you kindly list LC50 for each of these molecules?
# System: PC-3
# assay protocol: Antiproliferative activity against human PC3 cells after 48 hrs
# Format: functional
# experimental conditions: PC-3, 48 h
Use µM as the unit, but write only the number.

LC50 reported for this molecule `C[C@@H](NC(=O)CCCCCCCCCCCCCCC[n+]1ccccc1)[C@@H](O)c1ccccc1.[Br-]` : 15.1

LC50 reported for this molecule `CCCCCCCCCCCCCCN[C@H](C)[C@@H](O)c1ccccc1.Cl` : 5.89

LC50 reported for this molecule `CCCCCCCCCCCCCCN[C@H](CO)[C@H](O)c1ccccc1` : 5.5

LC50 reported for this molecule `CCCCCCCCCCCCCCN[C@@H](CO)Cc1ccccc1` : 5.62

###

Would you kindly list LC50 for each of these compounds?
# Test system: OVCAR-4
# assay protocol: Antiproliferative activity against human OVCAR4 cells after 48 hrs
# Format: functional
# experimental conditions: OVCAR-4, 48 h
Use µM as the unit, but write only the number.

The compound `C[C@H](NC(=O)CCCCCCCCCCCCCCC[n+]1ccccc1)[C@H](O)c1ccccc1.[Br-]` , tested on OVCAR-4, showed LC50 of 42.7

The compound `CCCCCCCCCCCCCCN[C@H](C)[C@@H](O)c1ccccc1.Cl` , tested on OVCAR-4, showed LC50 of 6.76

The compound `CCCCCCCCCCCCCCN[C@H](CO)[C@H](O)c1ccc([N+](=O)[O-])cc1.Cl` , tested on OVCAR-4, showed LC50 of 6.76

The compound `CCCCCCCCCCCCCCN[C@@H](C)[C@H](O)c1ccccc1` , tested on OVCAR-4, showed LC50 of 3.72

The compound `CCCCCCCCCCCCCCN[C@@H](CO)Cc1ccccc1` , tested on OVCAR-4, showed LC50 of 6.31

###

# Test system: HCT-116
# assay protocol: Antiproliferative activity against human HCT116 cells after 48 hrs
# Assay type: functional
# experimental conditions: HCT-116, 48 h
Response field label: string, one of 1.0 (LC50 strictly below 7 µM) or 0.0.

Would you kindly verify if LC50 of `CCCCCCCCCCCCCCN[C@@H](CO)Cc1ccccc1` is strictly less than 7 µM?
1.0

Would you kindly verify if LC50 of `CCCCCCCCCCCCCCN[C@H](CO)[C@H](O)c1ccccc1` is strictly less than 7 µM?
1.0

Would you kindly verify if LC50 of `CCCCCCCCCCCCCCN[C@H](CO)[C@H](O)c1ccc([N+](=O)[O-])cc1.Cl` is strictly less than 7 µM?
1.0

Would you kindly verify if LC50 of `CCCCCCCCCCCCCCN[C@@H](C)[C@H](O)c1ccccc1` is strictly less than 7 µM?
1.0

Would you kindly verify if LC50 of `C[C@H](NC(=O)CCCCCCCCCCCCCCC[n+]1ccccc1)[C@H](O)c1ccccc1.[Br-]` is strictly less than 7 µM?
0.0

Would you kindly verify if LC50 of `C[C@@H](NC(=O)CCCCCCCCCCCCCCC[n+]1ccccc1)[C@@H](O)c1ccccc1.[Br-]` is strictly less than 7 µM?
0.0

Would you kindly verify if LC50 of `CCCCCCCCCCCCCCN[C@H](C)[C@@H](O)c1ccccc1.Cl` is strictly less than 7 µM?
1.0

###

Would you kindly list GI50 for each of these compounds?
# System: KM12
# assay protocol: Antiproliferative activity against human KM12 cells after 48 hrs
# Type: functional
# experimental conditions: Homo sapiens, KM12, 48 h
Use µM as the unit, but write only the number.

GI50 reported for this compound `CCCCCCCCCCCCCCN[C@H](CO)[C@H](O)c1ccccc1` : 1.86

GI50 reported for this compound `CCCCCCCCCCCCCCN[C@@H](C)[C@H](O)c1ccccc1` : 1.86

GI50 reported for this compound `CCCCCCCCCCCCCCN[C@@H](CO)Cc1ccccc1` : 1.86

GI50 reported for this compound `C[C@@H](NC(=O)CCCCCCCCCCCCCCC[n+]1ccccc1)[C@@H](O)c1ccccc1.[Br-]` : 1.74

GI50 reported for this compound `CCCCCCCCCCCCCCN[C@H](C)[C@@H](O)c1ccccc1.Cl` : 1.82

GI50 reported for this compound `CCCCCCCCCCCCCCN[C@H](CO)[C@H](O)c1ccc([N+](=O)[O-])cc1.Cl` : 1.86

GI50 reported for this compound `C[C@H](NC(=O)CCCCCCCCCCCCCCC[n+]1ccccc1)[C@H](O)c1ccccc1.[Br-]` : 2.75

###

# Test system: Malme-3M
# assay protocol: Antiproliferative activity against human MALME3M cells after 48 hrs
# Format: functional
# experimental conditions: read-out: Log TGI (converted)
Would you mind labelling by TGI? At or over 4 µM is Criterion met, under is Criterion not met.

Dear colleague, could you confirm whether `C[C@H](NC(=O)CCCCCCCCCCCCCCC[n+]1ccccc1)[C@H](O)c1ccccc1.[Br-]` has TGI at or above 4 µM?
Criterion met

Dear colleague, could you confirm whether `C[C@@H](NC(=O)CCCCCCCCCCCCCCC[n+]1ccccc1)[C@@H](O)c1ccccc1.[Br-]` has TGI at or above 4 µM?
Criterion not met

Dear colleague, could you confirm whether `CCCCCCCCCCCCCCN[C@@H](CO)Cc1ccccc1` has TGI at or above 4 µM?
Criterion not met

Dear colleague, could you confirm whether `CCCCCCCCCCCCCCN[C@H](CO)[C@H](O)c1ccccc1` has TGI at or above 4 µM?
Criterion not met

Dear colleague, could you confirm whether `CCCCCCCCCCCCCCN[C@H](CO)[C@H](O)c1ccc([N+](=O)[O-])cc1.Cl` has TGI at or above 4 µM?
Criterion met

Dear colleague, could you confirm whether `CCCCCCCCCCCCCCN[C@H](C)[C@@H](O)c1ccccc1.Cl` has TGI at or above 4 µM?
Criterion not met

Dear colleague, could you confirm whether `CCCCCCCCCCCCCCN[C@@H](C)[C@H](O)c1ccccc1` has TGI at or above 4 µM?
Criterion not met

###

# Tested on: CAKI-1
# assay protocol: Antiproliferative activity against human CAKI1 cells after 48 hrs
# Format: functional
# experimental conditions: CAKI-1, 48 h, read-out: Log LC50 (the source's name) (converted)
Response field label: string, one of Y (CC50 strictly below 8 µM) or N.

Would you kindly verify if CC50 of `CCCCCCCCCCCCCCN[C@H](CO)[C@H](O)c1ccccc1` is strictly less than 8 µM?
Y

Would you kindly verify if CC50 of `CCCCCCCCCCCCCCN[C@@H](C)[C@H](O)c1ccccc1` is strictly less than 8 µM?
Y

Would you kindly verify if CC50 of `CCCCCCCCCCCCCCN[C@@H](CO)Cc1ccccc1` is strictly less than 8 µM?
Y

Would you kindly verify if CC50 of `C[C@H](NC(=O)CCCCCCCCCCCCCCC[n+]1ccccc1)[C@H](O)c1ccccc1.[Br-]` is strictly less than 8 µM?
N

Would you kindly verify if CC50 of `CCCCCCCCCCCCCCN[C@H](C)[C@@H](O)c1ccccc1.Cl` is strictly less than 8 µM?
Y

Would you kindly verify if CC50 of `C[C@@H](NC(=O)CCCCCCCCCCCCCCC[n+]1ccccc1)[C@@H](O)c1ccccc1.[Br-]` is strictly less than 8 µM?
N

Would you kindly verify if CC50 of `CCCCCCCCCCCCCCN[C@H](CO)[C@H](O)c1ccc([N+](=O)[O-])cc1.Cl` is strictly less than 8 µM?
N
